These measurements were taken from PubChem BioAssay.

Answer each item with its documented inhibition.
Biological target: L-lactate dehydrogenase (Plasmodium falciparum (isolate CDC / Honduras))
Test: PfLDH activity inhibition – cell lysate, 3D7 strain, counter-screen for P. falciparum growth inhibition project (AID 2304);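 note: 0% = vehicle and 100% = reference inhibitor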
Conditions: P. falciparum 3D7 crude extract, LDH APAD/NBT absorbance; at 2 µM; hits give high values
Unit % implied. Number only.

Documented inhibition of CN(C)c1ccc(NC(=O)Nc2ccnc3ccc(Br)cc23)cc1 : 6

Documented inhibition of CC1(C)CCC(C)(C)c2c1ccc(C1CCN(CCCCNC(=O)c3ccc(-c4ccc(C#N)cc4)cc3)CC1)c2OCC(N)=O : -3

Documented inhibition of Cc1cccc2[nH]c(-c3ccc(-c4ccc(CN5CCN(CCN6CCOCC6)CC5)cc4)s3)nc12 : 3

Documented inhibition of Cc1onc(-c2ccccc2)c1-c1nc(NCc2ccccc2Cl)no1 : -3

Documented inhibition of COc1cc(C2=NN(S(=O)(=O)c3c(Cl)cc(Cl)cc3Cl)CCCC2)ccc1Cl : -1

Documented inhibition of O=C(/C=C/c1ccc(Cl)c(Cl)c1)NCCCCN1CCCN(C(=O)Nc2ccc(Cl)c(Cl)c2)CC1 : 3

Documented inhibition of O=C(N[C@@H](CC1CCCCC1)C(=O)NCCc1ccc(Cl)c(Cl)c1)c1ccc(O)c(-c2ccc(Cl)c(Cl)c2)c1 : -2

Documented inhibition of COc1cc2ccccc2c(OC)c1CNCCCCCCNCc1c(OC)cc2ccccc2c1OC : 0

Documented inhibition of Nc1n[nH]c(-c2ccccc2Nc2ccnc3cc(-c4nccs4)ccc23)n1 : -2

Documented inhibition of CN1CCN(c2nc(NCCNc3ccc([N+](=O)[O-])cc3)c3ccccc3n2)CC1 : 6

Documented inhibition of CCN1CCC(N(Cc2ccc(-c3ccc(C(F)(F)F)cc3)cc2)C(=O)Cn2c(CCc3cccc(F)c3F)cc(=O)c3ccc(OCc4ccccc4)cc32)CC1 : 3

Documented inhibition of O=C(NCc1ccc(Cl)c(Cl)c1)c1cccc(C2CCCN(Cc3ccc4nc[nH]c4c3)C2)c1 (stereo not drawn) : 5

Documented inhibition of CN(C)c1ccc(C=C2SC(=O)NC2=Nc2ccccc2)cc1 : 6

Documented inhibition of CC(C)COc1ccc(Cl)cc1Cc1ccc(-c2nc3c(cnc4ccccc43)[nH]2)o1 : 1

Documented inhibition of COc1ccc(C(=O)CCC(=O)N(Cc2ccc(-c3ccc(CNCCc4ccc(S(C)(=O)=O)cc4)cn3)cc2)Cc2ccc3c(c2)OCO3)cc1F : 3

Documented inhibition of CC1CN(Cc2ccc(C#N)cc2)CCN1c1ccc(NC(=O)c2cccs2)cc1 (stereo not drawn) : 2

Documented inhibition of O=C(Nc1ccc(Br)c(Cl)c1)c1cc([N+](=O)[O-])cc2cn[nH]c12 : -1

Documented inhibition of CCN(CC)S(=O)(=O)c1ccc(C(C)NC(=O)c2ccccc2COc2ccccc2)cc1 (stereo not drawn) : 4

====

Assay: antimalarial activity against Dd2 strain (AID 2302);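 note: 0% = DMSO untreated growth and 100% = chloroquine plus artemisinin killed control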
Conditions: P. falciparum Dd2 in RBCs, LDH growth readout, 72 h; at 2 µM; hits give high values
Please mark 1 (yes) if the recorded growth inhibition is equal to or greater than 30%, and 0 (no) if it falls below.

Q. Exam item: decide whether the reported growth inhibition for CCCCCCCC1CC(CC(=O)Nc2ccnc3ccc(OC)cc23)CN1C(=O)OC(C)(C)C (centres undefined) is at least 30%.
A. 1 (yes)

Q. Exam item: decide whether the reported growth inhibition for COc1ccc2nc(C)cc(NN=Cc3ccc([N+](=O)[O-])cc3)c2c1 is at least 30%.
A. 1 (yes)

Q. Exam item: decide whether the reported growth inhibition for Cc1cc(NCCC(=O)Nc2ccccc2)nc(NCCOc2ccccc2)n1 is at least 30%.
A. 0 (no)

Q. Exam item: decide whether the reported growth inhibition for N=c1c(C(=O)NCc2ccccc2)cc2c(=O)n3ccccc3nc2n1CCc1ccccc1 is at least 30%.
A. 0 (no)

Q. Exam item: decide whether the reported growth inhibition for O=C(Nc1ccc2c(c1)OCO2)c1cc(-c2cccnc2)cnc1NCc1ccc2c(c1)OCO2 is at least 30%.
A. 0 (no)

Q. Exam item: decide whether the reported growth inhibition for Cc1cc(N[C@@H](CC(C)C)C(=O)NCCOc2ccccc2)nc(NCC2CCCCC2)n1 is at least 30%.
A. 1 (yes)

Q. Exam item: decide whether the reported growth inhibition for COc1cc(C2CCN(CCCCNC(=O)c3ccc(NC(=O)c4ccc(Cl)c(Cl)c4)cc3)CC2)ccc1OC(C)C is at least 30%.
A. 1 (yes)

Q. Exam item: decide whether the reported growth inhibition for COc1ccc(Nc2ncc3c(-c4cccc(NC(=O)Cc5cccc(F)c5)c4)c[nH]c3n2)cc1OC is at least 30%.
A. 1 (yes)

Q. Exam item: decide whether the reported growth inhibition for Cc1ccc(-n2c(C)nc3c(Nc4ccc(-c5ccncc5)cc4)ncnc32)c(C)c1 is at least 30%.
A. 1 (yes)
